Tested on: MS2 coat protein
Assay: apparent KD of MS2 coat protein; designed switch direction (-1 OFF switch, 1 ON switch): -1; higher = weaker reporter binding
Conditions: input ligand: FMN 200 uM
property_label: apparent KD of MS2 coat protein
For clarity, give the value followed by its unit.

// known answers, use as guide
GAUUCGCGAGGAUAUACAGUCGAGUCCAUUACGUGUCUCGGACUUGAGGAUCACCCAAGUAGAAGGCGUCUCAU [salish99_ex2_r4_637] (Eterna round: R97, puzzle: Exclusion 2)    55.8 nM
ACAAGCUUUUAGAUUCUUAACAUGAGGAUCACCCAUGUGCUCGUCUUACCGGCCGGCGGGCCGCCGGCCGGGCUUGU (Eterna round: R97, puzzle: Sensor, turn-off variant 1)    18.5 nM
UGAUCUAGCGGAGGAUAUACAUGAGGAUCACCCAUGUAGGAUCCAUGACCGUAGUCGUGGAUCGUGUAGAAGGCCGCUAGAUCU [JL ENG2 3.70] (Eterna round: R96, puzzle: Exclusion NG 2)    13 nM
AUUGUUUGAUACCUUUAAUACAUGAGGAUCACCCAUGUUAUCGAGGAUAUGUAGAAGAGAUGAGAACAGAAGGCGAAGUAAGAG [JR_ExcNG3_Sub096] (Eterna round: R96, puzzle: Exclusion NG 3)    21.3 nM

Now let's try a different one.
Memo: CUUUUGUGAGGAUAUUAGUAGUUUAUAAUUAAAAUUAUUACUGAGAAGGCACAUGAGGAUCACCCAUGUACCAC [JR_Ex4_Sub030] (Eterna round: R97, puzzle: Exclusion 4) , reported apparent KD of MS2 coat protein: 92.8 nM

----------
Tested on: MS2 coat protein
Experiment: apparent KD of MS2 coat protein, switch OFF state (with FMN for OFF switches, without FMN for ON switches); designed switch direction (-1 OFF switch, 1 ON switch): -1; higher = weaker reporter binding
Details: FMN input: 0 or 200 uM; Eterna round: R93 (includes R88 designs)
Measured apparent KD of MS2 coat protein of individual entries
# output: bare number, implied unit nM

Some sequences with recorded apparent KD of MS2 coat protein:
AAGAAACAUGAGGAUCACCCAUGUGAGGAUAUUGAAGAAAGAAAGAAAGAAAGAAGAACAAGAAGGCACAAAGG [Quintus Magnus Maximus]    35
AAGUACUCAGGAUAUACAUGAGGAUCACCCAUGUGAUAAAAGCGUAAAAAACGCACAUGUAGAAGGGAGUACAA [JL In thr Red Again 2]    84
GGUUGGCGAGGAUAUACAUGAGGAUCACCCAUGUGAGAGAAAAAAGUGAGAAAGAAACGUAGAAGGCGCUGACG [salish99-ex3-30]    824

Entry AAGAAUCGAGGAUAUACAAGAAAGAAAGAAAAGAAAAGAAAACAUGAGGAUCACCCAUGUAGAAGGCGAUAGAA [EteRNA is fun!] , apparent KD of MS2 coat protein reported as 24.6

----------
Test system: MS2 coat protein
Experiment: apparent KD of MS2 coat protein; higher = weaker reporter binding
Details: Eterna round: R107; input ligand: arginine 13.2 mM
If the reported apparent KD of MS2 coat protein equals or exceeds 30 nM, assign MET. If not, assign NOT MET.

ACAUGAGGAUCACCCAUGUACAUAAGGGAAGGAGCGCGGUGAGACGCAGGUAGGUCGCCCAUAAUAACAAACAUUAAAUUCAUGU [#25 Same State - Arginine A]    NOT MET

Exercise: Please tell me: is the sequence AGCAGUACAACAGAUACCAGACUUUUAAUGCCUCUAAUUACAUGAGGAUCACCCAUGUUUGUCCCUUGGCAGCUGUUGUACUGCA [JR_ExcTheophyB_Sub010] at or over 30 nM in terms of apparent KD of MS2 coat protein?
Solution: MET

Exercise: Is apparent KD of MS2 coat protein for GCUGCCAUACGAAGGAGCGCUGGUGUAAUGAGGCGAACAUGAGGAUCACCCAUGUGGCAUAAGCAGGUAGGUCGCGUAUGGCAGC [EAB #16] at or above 30 nM?
Solution: NOT MET

Exercise: Form field: apparent KD of MS2 coat protein at least 30 nM? Entry: AUUAAUAGUUGUGAUACCAGACGAACAUGAGGAUCACCCAUGUAACUUAAGAGUGUUGAUGUCCCUUGGCAGCACUGUUUAGUUA [JR_SSTheophyB_Sub015]
Solution: MET

Exercise: // inclusive: apparent KD of MS2 coat protein at least 30 nM? input: UUAUUUAUAGGGUAUAUCAGAUUAACUGAAGGAGCGUGGUAAUUCACAGGUAGGUCGCAGAUGGAACAUGAGGAUCACCCAUGUU [JR_ExcArginiA_Sub015]
Solution: NOT MET

Exercise: Dear colleague, could you confirm whether GACGGUACGUCGGCAAAGCCGAUGUGCCAGCGAGGACCGGUACGGCCGCCACUCGUACAUGAGGAUCACCCAUGUCCGGUCCGUC [Omei Trp SS A C v3] has apparent KD of MS2 coat protein at or above 30 nM?
Solution: MET

Exercise: Record CUCCCGUGAGCGGCCGCCACUGGAGGCCUCGCGCGACAUGAGGAUCACCCAUGUUGGCCCGGCCUCAGGACCGGGUUCGCGCGAG [Same State - Tryptophan B Attempt #5 (HarryS)] ; criterion: apparent KD of MS2 coat protein no lower than 30 nM. Met?
Solution: NOT MET

Exercise: Kindly determine if apparent KD of MS2 coat protein recorded for UCGGUUUUCUACAUGAGGAUCACCCAUGUCCGAGGACCGGUACGGCCGCCACUCGCAAUCAAACAGACGUGGGCCAAAUUUGCGU [Isinso] is above or exactly 30 nM.
Solution: NOT MET

Exercise: Evaluate ACUCGGUGUUUGUUGCUCCGAGUGUAUGAUACCAGUUAGUUUUAUGGCCCUUGGCAGCAUAGGACAUGAGGAUCACCCAUGUGUU [#02 SameState-TheophyllineA] : apparent KD of MS2 coat protein at minimum 30 nM?
Solution: NOT MET

Exercise: Reported apparent KD of MS2 coat protein reaches at least 30 nM for UUGUGUUUAUUGGUUUAGCUAUUAUGGUUGCGAGGACCGGUACGGCCGCCACUCGAUGGAACAUGAGGAUCACCCAUGUGAGGAA [JR_ExcTryptoA_Sub013] ?
Solution: NOT MET

Exercise: Hello, I need to know if GGUUGGUGUAGAGAUAUAUUGAUUACUGAAGGAGCGGGAAGAAACCCAGGUAGGUCGCAGAGAUCCACAUGAGGAUCACCCAUGU [!0.L] has measured apparent KD of MS2 coat protein not below 30 nM. Thanks!
Solution: NOT MET

Exercise: Quick check: does AUAUUACAUGUUAUUAUACGGUAUACUGAUACCAGUGUUUCUAUUCACCCUUGGCAGCAGCAACAUGAGGAUCACCCAUGUAUUA [JR_SSTheophyA_Sub018] have apparent KD of MS2 coat protein greater than or equal to 30 nM?
Solution: NOT MET

Exercise: Does the sequence GCACGACAUGAGGAUCACCCAUGUGCAGAUACCAGUAAUGUAUGUUACCCUUGGCAGCUGAGUAGGUCUGGAGGGCUAUAGGUUU [Same State Theophylline A GF13] have recorded apparent KD of MS2 coat protein that is 30 nM or more?
Solution: NOT MET

Exercise: Has GAUAACAUGAGGAUCACCCAUGUGGCGUCGCGAGGACCGGUACGGCCGCCACUCGGCAGUUCAACUCGAAUAUAGUGAUCGAAGU [theeternabot_sameState_MS2_Trp_A_16] a recorded apparent KD of MS2 coat protein greater than or equal to 30 nM?
Solution: MET

Exercise: Hi, just wondering whether AUAUGAUCAUGUGAUACCAGAAAUGGUAGUCCUCGCUGGAUUACAUGAGGAUCACCCAUGUUCCCUUGGCAGCAUAUGAUCAUAU [#02 Exclusion-TheophyllineB] shows apparent KD of MS2 coat protein of 30 nM or higher.
Solution: MET

----------
System: K4 kissing-loop RNA reporter;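 also: bound reporter read as fluorescence of individual clusters on recovered sequencing chips by microscopy, with normalized cluster intensities fitted with a binding model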
Test: apparent KD of K4 kissing-loop reporter; higher = weaker reporter binding
Details: Eterna round: R107; input ligand: arginine 13.2 mM
property_label: apparent KD of K4 kissing-loop reporter (µM)
Give the value, in units of µM, as a plain number.

Examples with answers:
CGUGCCCAGCCGGAUACCAGUGACCCGCUGGGAACCGCGGGCCCAGAGUGAUGUUCGGGACACCCUUGGCAGCCGCCUGGGCGGG [#2 Same State - Theophylline B Attempt #15 (HarryS)]    0.392
UGACUGGAUGGAAGGAGCGCUAAACUCCUAGUGAUGUUAGGGAUAUGAGGCAAAGCCUUGAGGCAGGUAGGUCGCCAUCUAGUCU [FiskerMod 25 - Jieux - Same State - Arginine B]    0.117
UCGAACGAUGGAAGGAGCGCUCGUCAGUCCUGCGAGUGAUGUUCGUGGGUAAAUAGUCGCGAGCAGGUAGGUCGCCAUCUUGAGC [Indiermaar]    0.12
GUCGGGACUCGAGGAUAUCAGUGGAGGCCAGUGAUGUUGGCCGUCCCGGUAGUUAAAAUUUUACCCUGAGAAGGCGAUUUCUGUC [Veceinusqu]    0.128
UCGCACCUGUGGGCGAGGCCUAUAAUUGUCAAGGAUAUAGAUCAUUCUAGAAGGUGACACUUCGCGAGUGAUGUUCGGGAAAUGC [theeternabot_sameState_KL_FMN_A_8]    0.212
UUAGCUCUAUAGAGCAAGAGGUCAACUGAUACCAGAGGCUAUAGCCUCCCUUGGCAGCGGAACGAGUGAUGUUCGAGACCUCAUU [AK6 SS Theophylline A]    0.816

Reported apparent KD of K4 kissing-loop reporter ( ACCCGGGCCCGAAAGGGCCCGGGAAGAGAUACCAGCAGCGAAAGCUGCCCUUGGCAGCUCACUUAGUGAUGUUGAGUAUAGGGUA [#22 K4 Theophylline A Same State] ) = 0.463

Per the record, UGACAUUGCUCAGAUACCAGACCUGAGGAUCACCCUGGUGCCAAACGUACAAUAAUAAAUGUCCCUUGGCAGCUGAGCAAUGUCU [TheoBX 14] has apparent KD of K4 kissing-loop reporter of 0.0276
